experiment: IN Cell qHTS Assay for Inhibitors of the mTORC1 Signaling Pathway in MEF (Tsc2-/-, p53-/-) Cells: Sytravon; settings: phospho-rpS6 immunofluorescence, 24 h; series mostly up to 38.3 µM; also: nearly all actives have a fitted effect of over 60% in size
Out of some 2,100 compounds screened, about 210 (10%) were called active. Roughly 53% stayed inconclusive and do not appear here. Calls follow the shape of the dose curve; as a rule, active = well fitted inhibition curve with a large enough effect; inconclusive = small, poorly fitted or top-dose-only effect, or effect the other way; inactive = no such curve, though single readings can be large or run the other way. This is one part of the list.
Output constraint: value belongs to true (1) (active), false (0) (inactive)

Take a look at these entries with their results.
> print(dat)
                            compound.string  assigned.label
1  COc1ccccc1CNC(=O)CCCn1c(=O)c2ccccc2n(Cc2ccc(F)cc2)c1=O       false (0)
2  COC(=O)c1sc2cccc(F)c2c1S(=O)(=O)N1CCN(c2cccc(OC)c2)CC1       false (0)
3  CC(C)CCNC(=O)c1cccc(Nc2nc3ccccc3n3nnnc23)c1        true (1)
4    COc1ccc(-n2ncc3c(NCCCOC(C)C)ncnc32)cc1       false (0)

In the following, a different compound is considered.
Outcome? Cc1ccc(-c2nc3scc(CCNC(=O)c4cccc(Br)c4)n3n2)cc1
false (0)

* * *

assay: IN Cell qHTS Assay for Inhibitors of the mTORC1 Signaling Pathway in MEF (Tsc2-/-, p53-/-) Cells: Sytravon; conditions: phospho-rpS6 immunofluorescence, 24 h; series mostly up to 38.3 µM; also: nearly all actives have a fitted effect of over 60% in size; also: potency is read from the fitted curve at half-maximal effect
Among all 2,100 compounds or so, about 210 (10%) were called active. About 53% were inconclusive and are not listed. Some of the results follow.
ENDPOINT_NAME: Potency

> print(dat)
                                   molecule  endpoint.name    measured.value
1  COc1cccc(-c2cc(C(=O)Nc3ccn(Cc4ccc(C)cc4)n3)no2)c1        Potency          inactive
2     CCCCC(=O)Nc1nnc(S(=O)(=O)N2CCCCCC2)s1        Potency          inactive
3      COc1cccc(-c2nnc3sc(CN4CCCCC4)cn23)c1        Potency  14.7 µM (active)
4        O=C(Nc1cccs1)Nc1cc(C(F)(F)F)ccc1Cl        Potency  9.27 µM (active)
5    COc1cc2nc(Nc3ccc(C)c(C)c3)nc(N)c2cc1OC        Potency  4.14 µM (active)

Tell me measured Potency for CCCCCC(=O)Nc1ccc(NC(=O)c2cc3ccccc3o2)c(OC)c1 please.
18.5 µM (active)

Tell me measured Potency for COc1ccc(-c2nc(SCC(=O)Nc3ccc4c(c3)OCCO4)c(-c3ccc(F)cc3)[nH]2)cc1 please.
inactive

Tell me measured Potency for CCOC(=O)c1cc(S(=O)(=O)NCc2ccc(C)cc2)[nH]n1 please.
inactive

Tell me measured Potency for COc1ccccc1CN1COc2ccc3c(oc(=O)c4ccccc43)c2C1 please.
inactive

* * *

assay: IN Cell qHTS Assay for Inhibitors of the mTORC1 Signaling Pathway in MEF (Tsc2-/-, p53-/-) Cells: Sytravon; settings: phospho-rpS6 immunofluorescence, 24 h; series mostly up to 38.3 µM; also: nearly all actives have a fitted effect of over 60% in size
Hit rate of the full screen: of about 2,100 compounds, about 210 (10%) were called active. About 53% were inconclusive and are not listed. The call rests on the fitted dose curve; in most records, active means well fitted inhibition curve with a large enough effect; inconclusive means small, poorly fitted or top-dose-only effect, or effect the other way; inactive means no such curve, though single readings can be large or run the other way. The list shows a part of the results.
Output constraint: value belongs to TRUE for active, FALSE for inactive

Take a look at these entries with their results.
> print(dat)
                                   molecule  assigned.label
1  Cc1ccc(S(=O)(=O)c2nnn3c2nc(NCc2cccs2)c2sccc23)cc1           FALSE
2  COc1cc(Nc2nc(SCC(=O)c3ccc(Cl)c(Cl)c3)nc3ccccc23)cc(OC)c1           FALSE
3  COc1ccccc1C(=O)Nc1nc2ccc(S(=O)(=O)N3CCCC3)cc2s1           FALSE

Outcome? COC(=O)C1=C(C)N(C(C)C)C(=O)C1(NC(=O)c1ccc(C(C)(C)C)cc1)C(F)(F)F (stereo unspecified)
TRUE

Outcome? O=C(NCCSc1c(-c2ccc(F)cc2)[nH]c2ccccc12)c1ccc(S(=O)(=O)N2CCOCC2)cc1
FALSE

Outcome? CCOC(=O)c1c(C)oc2nc(C)nc(NCc3ccc(Cl)cc3)c12
FALSE

Outcome? CCCCS(=O)(=O)c1oc(-c2cccs2)nc1S(=O)(=O)c1ccccc1
TRUE

Outcome? COc1ccccc1C(=O)Nc1sc(Nc2ccccc2)nc1C(N)=O
TRUE

Outcome? Fc1ccc(C2=NC(c3cccc(C(F)(F)F)c3)=Nc3ccccc3N2)cc1
FALSE

Outcome? CCC(C)S(=O)(=O)c1oc(-c2cccs2)nc1S(=O)(=O)c1ccccc1 (stereo unspecified)
TRUE

Outcome? Cc1cc(NC(=O)C2CCC(CNS(=O)(=O)c3ccc(Br)s3)CC2)ccc1Br (stereo unspecified)
FALSE

Outcome? Cc1ccc(-c2nn3c(=O)cc(CN4CCN(C(=O)Nc5cc(Cl)ccc5C)CC4)nc3s2)cc1
FALSE

Outcome? O=C(NCc1ccccc1Cl)c1cnc(N2CCCCC2)c2ccccc12
FALSE

This collection of values is drawn from PubChem BioAssay AID504465.
